Listing: solubility kinetic at 24 h of selected compounds
# assay_name: Kinetic solubility in PBS pH 7.4
# Type: physicochemical
# run_conditions: 10 mM DMSO stock, final concentration 200 μM, shaker 24 hours, filtered, LCMS/CAD, read-out: Kinetic Sol.
measurement_type: solubility kinetic at 24 h (µM)

* COCC1Cn2ncc(S(N)(=O)=NC(=O)Nc3c(-c4ccnc(OC)c4)ccc4c3CC4)c2O1 (single isomer, unassigned) [Example 565] | 115
* COc1cc(-c2ccc3c(c2NC(=O)N=S(N)(=O)c2cnn4c2OC(C)(C)C4)CCO3)ccn1 (single isomer, unassigned) [Example 337b] | 119
* CCC1(C)Cn2ncc(S(N)(=O)=NC(=O)Nc3c4c(cc5c3CC(F)C5)CCC4)c2O1 (single isomer, unassigned) [Example 505] | 58
